Source of measurements: the supplement of paper PMC10567573

B1: C8orf76 (parent)
chain: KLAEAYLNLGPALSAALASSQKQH

# Variants of: B1
# Run Description: protein stability index of a GFP-peptide fusion (GPS, HEK-293T) (PSI 1-6); higher = more stable;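 further: lentivirally expressed fusions sorted by FACS into six bins by GFP to DsRed ratio, PSI derived from sequencing read proportions per bin multiplied by bin number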
# Condition Details: c terminus: a fixed tail appended
Entries are sorted into classes by protein stability index as follows: low bin = under 2, mid bin = from 2 up to 3, high bin = 3 and over

Before answering, review these 5 worked examples.
>>> df
   sequence_change  category_label
0             H24A        high bin
1             A12C         low bin
2             Q23I         mid bin
3             K22D         low bin
4              Y6Q         mid bin

In: # bin label for Q23L
Out: mid bin

In: Input L2P ; output its category
Out: high bin

In: Which bin, given its protein stability index, does N8V occupy?
Out: high bin

In: Class (by measured protein stability index) for N8A
Out: high bin

In: Quick check: band for A3F
Out: high bin
